Biological target: cGMP-specific PDE-5 (UniProt O76074)
Reported IC50 by item:
Recorded Metric: IC50

CCOCCn1nc(C)c2nc(N3CC(C)NCC3C)nc(Nc3ccncn3)c21 (centres unmarked) : 0.33 nM
CCOCCn1nc(CC)c2nc(N(C)C3CCN(C)CC3)nc(Nc3ccncn3)c21 : 0.5 nM
CCOCCn1nc(COC)c2nc(N(C)C)nc(Nc3cc(C)ccn3)c21 : 1.32 nM
CCOCCn1nc(CC)c2nc(N(C)C3CCN(C)C3)nc(Nc3cc(C)ccn3)c21 (centres unmarked) : 0.24 nM
CCOCCn1nc(CO)c2nc(N(C)CC)nc(Nc3cc(C)ccn3)c21 : 0.41 nM
